- System: UACC-257
- TEST: NCI tumour cell line growth inhibition, 48 h
Calls of active or inactive are those of the source. No stated cut-off is given here; in the data, active = GI50 up to about 1.1 µM and inactive = higher.
Answer with one of the outcomes Yes for active, No for inactive

// query What classification did COc1ccc(C(OCC2OC3(COC(c4ccccc4)(c4ccc(OC)cc4)c4ccc(OC)cc4)C(Oc4nc(=O)ccn43)C2O)(c2ccccc2)c2ccc(OC)cc2)cc1 (centres undefined) end up with in this test?
// result No

// query What classification did NC(=O)C(=CNC(N)=S)C(N)=O end up with in this test?
// result No

// query What classification did COc1ccc(C(CC(=O)c2ccc(O)cc2)C(C(=O)c2ccc(O)cc2)C(c2ccc(OC)cc2)C2C(=O)NC(=S)NC2=O)cc1 (centres undefined) end up with in this test?
// result No

// query What classification did CC(=O)/C(=C(/Br)I)c1ccccc1 end up with in this test?
// result No

// query What classification did CCOC(=O)C1=C(C)N(c2ccc(Cl)cc2)C2(O)C=CC(=O)C3C(=O)N(c4ccccc4)C(=O)C132 (centres undefined) end up with in this test?
// result No

// query What classification did O=c1cc(/N=N\c2ccc(Br)cc2)[nH]c(=S)[nH]1 end up with in this test?
// result No

// query What classification did CC(=O)OC1=CC(n2cc(F)c(=O)[nH]c2=O)OC(C)C1=O (centres undefined) end up with in this test?
// result No

// query What classification did CC1=NN(C(=O)CC(=O)N(C(=O)c2ccccc2)c2ccc(Cl)cc2)C(=O)C1/N=N/c1ccc([N+](=O)[O-])cc1 (centres undefined) end up with in this test?
// result No

// query What classification did S=C1N=C2C(=N1)n1c3c(c4ccccc41)CCCC23 (centres undefined) end up with in this test?
// result No

// query What classification did C/C(=C1\N=C(c2ccccc2)OC1=O)c1ccccc1 end up with in this test?
// result No

// query What classification did Fc1ccc(Oc2nc3ccc(C(F)(F)F)cc3nc2-c2ccccc2)cc1 end up with in this test?
// result No

// query What classification did CCOc1ccccc1N1C(=O)C(=O)C(c2nc3ccccc3o2)C(=O)C1=O end up with in this test?
// result No

// query What classification did CCCCSc1n/c(=C\c2ccc(N(C)C)cc2)c2nnnn12 end up with in this test?
// result No

// query What classification did Nc1ccc(-c2nc3ccc(Cc4ccc5nc(-c6ccc(N)cc6)oc5c4)cc3o2)cc1 end up with in this test?
// result No

// query What classification did CN1N=C2c3ccccc3OC(c3ccccc3)[C@H]2C1c1ccccc1 (some centres undefined) end up with in this test?
// result No

// query What classification did C=C(C)[C@@H]1CC[C@]2(C(=O)O)CC[C@]3(C)[C@H](CCC4[C@@]5(C)CC[C@H](C(=O)/C=C/c6ccc(O)c(O)c6)C(C)(C)[C@@H]5CC[C@]43C)[C@@H]12 (some centres undefined) end up with in this test?
// result No

// query What classification did COC1CC(NC(=O)C(F)(F)F)C(OC(C)=O)C(C)O1 (centres undefined) end up with in this test?
// result No

// query What classification did [O-][Cl+3]([O-])([O-])[O-].c1ccc(-c2csc3c4ccccc4c4ccccc4[n+]23)cc1 end up with in this test?
// result Yes

// query What classification did O=C1OC(CC(=O)c2ccccc2Cl)C(Cl)=C1Cl (centres undefined) end up with in this test?
// result No

* * *

Hi there, I'd appreciate the recorded GI50 for every entry that follows.
- Test system: Hs-578T
- TEST: NCI tumour cell line growth inhibition, 48 h
Calls of active or inactive are those of the source. Rule as the data show it: active = GI50 up to about 1.1 µM and inactive = higher.

Sample CC[C@](O)(C(=O)O)c1cc2n(c(=O)c1CO)Cc1cc3ccccc3nc1-2 ; GI50 observed: 6.05 µM (inactive)

Sample COc1cc(C(=O)O)c([N+](=O)[O-])c(OC)c1OC ; GI50 observed: > 100 µM (inactive)

Sample N#Cc1nc2cc(Cl)ccc2nc1N1CCN(c2ccc([N+](=O)[O-])cc2)CC1 ; GI50 observed: > 100 µM (inactive)

Sample Cc1nc2ccccc2n1Cc1nnc(N)o1 ; GI50 observed: > 100 µM (inactive)

Sample COc1cc([C@@H]2c3cc4c(cc3[C@@H](c3c(O)cc(O)c5c3O[C@H](c3ccc(O)c(O)c3)[C@@H](O)C5)[C@H]3COC(=O)[C@H]23)OCO4)cc(OC)c1O ; GI50 observed: > 100 µM (inactive)

Sample c1ccc2c(c1)-c1nc3ccccc3cc1C2N1CCOCC1 (stereo unspecified) ; GI50 observed: 46.6 µM (inactive)

Sample Cc1occc1/C(S)=N\c1ccc(Cl)c(C(=O)OCC2CC2)c1 ; GI50 observed: 46.9 µM (inactive)

Sample CC(SC(=S)N1CCOCC1)C(=O)Nc1nnc(-c2ccc(Cl)cc2)o1 (stereo unspecified) ; GI50 observed: > 100 µM (inactive)

Sample Cc1nc2c(=O)n3c4c(cccc4c2o1)CCC3 ; GI50 observed: > 100 µM (inactive)

Sample O=C(O)c1cc(-c2ccc3cc4c(cc3c2)OCO4)nc2ccccc12 ; GI50 observed: 49.2 µM (inactive)

Sample CCOC(=O)c1[nH]c(-c2[nH]c(-c3[nH]c(-c4[nH]c(C(=O)OCC)c(C)c4C(=O)OCC)c(C(=O)OCC)c3C)c(C)c2C(=O)OCC)c(C(=O)OCC)c1C ; GI50 observed: > 100 µM (inactive)

Sample O=C(NC1C/C(=N/O)c2c(Br)sc(Br)c21)C(F)(F)F (stereo unspecified) ; GI50 observed: 11.2 µM (inactive)

Sample Nc1ccc(-c2nc3ccc(F)cc3s2)cc1Cl ; GI50 observed: 32.9 µM (inactive)

Sample COc1ccc(/C=N/c2c(O)ccc3ccccc23)cc1OC ; GI50 observed: 4.36 µM (inactive)

Sample COc1ccc(/C=C(/C)[N+](=O)[O-])cc1 ; GI50 observed: 9.02 µM (inactive)

Sample CSC1=N/C(=C\c2ccc(C)cc2)C(=O)N1 ; GI50 observed: 32.6 µM (inactive)

Sample CN(C)c1ccc(/C=C2/SC(=S)NC2=O)cc1 ; GI50 observed: > 100 µM (inactive)

Sample Cc1nc2ccc(S(=O)(=O)Nc3ccccc3Cl)cc2c(=O)n1NC(=O)CNc1ccccc1Cl ; GI50 observed: > 100 µM (inactive)

Sample C=C1C(=O)C23C(O)CC4C(C)(C)CCC(O)C4(C)C2CC(OC(C)=O)C1[C@H]3O (stereo partly specified) ; GI50 observed: 24 µM (inactive)

Sample CCCS(=O)(=O)O ; GI50 observed: > 100 µM (inactive)

Sample OC1[C@@H]2[C@@H](O)[C@H](O)[C@@H](O)N2C[C@@H]1O (stereo partly specified) ; GI50 observed: > 100 µM (inactive)

Sample Cc1nn(-c2ccccc2)c2nc3ccc(Cl)cc3c(-c3ccccc3)c12 ; GI50 observed: > 100 µM (inactive)

Sample Nc1c2c(nc3ccccc13)-c1ccccc1CCC2 ; GI50 observed: 20.2 µM (inactive)

Sample Cc1noc(NS(=O)(=O)c2ccc(NC(=O)c3ccc4nc5ccccc5c(Nc5ccc(S(=O)(=O)Nc6onc(C)c6C)cc5)c4c3)cc2)c1C ; GI50 observed: > 100 µM (inactive)

Sample COc1cc(C=O)cc(/C=N/N=C/c2ccccc2O)c1O ; GI50 observed: 2.92 µM (inactive)

Sample CC(=C(C(=O)O)C(=O)O)c1cc(-c2cccs2)cc(-c2ccc(Cl)cc2)c1O ; GI50 observed: > 42.7 µM (inactive)

Sample Nc1cc2c(nc3c4ccccc4c(N)cc3[n+]2-c2cccc3ccccc23)c2ccccc12.Nc1cc2c(nc3c4ccccc4ccc3[n+]2-c2cccc3ccccc23)c2ccccc12 ; GI50 observed: 1.17 µM (inactive)

Sample COc1cc2[nH]c3c(c2cc1OC)CCN[C@@]31CC[C@@]2(CC3c4c(cc(OC)c(O)c42)CCN3C)C[C@@H]1OC (stereo partly specified) ; GI50 observed: 19.7 µM (inactive)

Sample C#CC(C)(C)OC(=O)C(=[N+]=[N-])C(C)=O ; GI50 observed: > 10 µM (inactive)

Sample CC(CCC(=O)O)(c1ccc(O)cc1)c1ccc(O)cc1 ; GI50 observed: > 100 µM (inactive)

Sample CCOC(CCNCC(OCC)OCC)OCC ; GI50 observed: > 10 µM (inactive)

Sample Cc1nnc(Nc2ccc(Cl)cc2)o1 ; GI50 observed: > 10 µM (inactive)

Sample C=C(C)[C@@H]1CC[C@]2(C(=O)O)CC[C@]3(C)[C@H](CCC4[C@@]5(C)CC[C@H](C(=O)/C=C/c6ccc(O)c(O)c6)C(C)(C)[C@@H]5CC[C@]43C)[C@@H]12 (stereo partly specified) ; GI50 observed: 5.47 µM (inactive)

Sample Cc1cn(C2CC(N/C(=N/C#N)NCC3OC(n4cnc5c(N)ncnc54)CC3O)C(CO)O2)c(=O)[nH]c1=O (stereo unspecified) ; GI50 observed: > 100 µM (inactive)

Sample COc1ccc(Oc2nc3ccc(C(F)(F)F)cc3nc2-c2ccccc2)cc1 ; GI50 observed: > 100 µM (inactive)

Sample C=C1C(=O)OC2CC3(C)CCCC(C)C3=CC12 (stereo unspecified) ; GI50 observed: 2.91 µM (inactive)

Sample CC(C)(C)c1ccc(OC(=O)Nc2ccc(O)c(C(=O)O)c2)cc1 ; GI50 observed: > 100 µM (inactive)

Sample O=c1oc2ccccc2cc1-c1csc(Nc2cc(Cl)cc(Cl)c2)n1 ; GI50 observed: 12.2 µM (inactive)

Sample COC(=O)c1ccc(CCc2cc(O)ccc2O)cc1 ; GI50 observed: 16.1 µM (inactive)

Sample CCOC(=O)C(C(=S)SC)c1nn2c(=O)cc(C)nc2s1 (stereo unspecified) ; GI50 observed: 22.1 µM (inactive)

Sample CCOC(=O)c1sc2c(c1OC(=O)c1cccs1)c(=O)n(-c1ccccc1)c(=S)n2-c1ccccc1 ; GI50 observed: 23.7 µM (inactive)
